Assay: Solubility in substrate buffer as function of percentage of NMP
Format: physicochemical
Conditions: imidazole:HCl buffer (substrate buffer) with 10% NMP, aqueous with cosolvent or surfactant or cyclodextrin; 10% NMP in 50 mM imidazole:HCl pH 6.8
Consider the following compounds and their measured solubility readings.
READOUT LABEL: solubility (mM)

[[record]]
smi = "CC/N=c1\\cc2oc3cc(NCC)c(C)cc3c(-c3ccccc3C(=O)OCC(=O)NCCNC(=O)/C=C/c3ccc(O)cc3)c-2cc1C"
result_number = 1.8

[[record]]
smi = "CC/N=c1\\cc2oc3cc(NCC)c(C)cc3c(-c3ccccc3C(=O)OCC(=O)NCCOCCOCCNC(=O)/C=C/c3ccc(O)cc3)c-2cc1C"
result_number = 3.6


----------
Assay: UV-VIS absorbance maxima of chromogenic conjugates and mixtures
Assay type: physicochemical
READOUT LABEL: Absp nm (max) (nm)

[[record]]
compound = "CCN(CC)c1ccc2c(-c3ccccc3C(=O)N3CCN(CC(=O)NCCOCCOCCNC(=O)/C=C/c4ccc(O)cc4)CC3)c3ccc(=[N+](CC)CC)cc-3oc2c1 [Compound 8, RhodamineB-Pip-L12-Cou]"
unit_info = "nm"
result_number = 567

[[record]]
compound = "CN(C)c1ccc2c(-c3ccccc3C(=O)N3CCN(CC(=O)NCCOCCOCCNC(=O)/C=C/c4ccc(O)cc4)CC3)c3ccc(=[N+](C)C)cc-3oc2c1 [Compound 7, TM-Rhodamine-Pip-L12-Cou]"
unit_info = "nm"
result_number = 561

[[record]]
compound = "CC/N=c1\\cc2oc3cc(NCC)c(C)cc3c(-c3ccccc3C(=O)OCCN3CCN(CC(=O)NCCOCCOCCNC(=O)/C=C/c4ccc(O)cc4)CC3)c-2cc1C [Compound 14, Rhodamine 6G-Et-Pip-L12-Cou]"
unit_info = "nm"
result_number = 531

[[record]]
compound = "CC/N=c1\\cc2oc3cc(NCC)c(C)cc3c(-c3ccccc3C(=O)OCC(=O)NCCOCCOCCNC(=O)/C=C/c3ccc(O)c(OC)c3)c-2cc1C [Compound 18, Rhodamine 6G-12-Fer]"
unit_info = "nm"
result_number = 531

[[record]]
compound = "O=C(/C=C/c1ccc(O)cc1)NCCOCCOCCNC(=O)COC(=O)c1ccccc1-c1c2cc(Cl)c(=O)cc-2oc2cc(O)c(Cl)cc12 [Compound 11, 2,7Dichloro-Flu-L12-Cou]"
unit_info = "nm"
result_number = 517

[[record]]
compound = "O=C(/C=C/c1ccc(O)cc1)NCCOCCOCCNC(=O)COC(=O)c1ccccc1-c1c2ccc(=O)cc-2oc2cc(O)ccc12 [Compound 10, Flu-L12-Cou]"
unit_info = "nm"
result_number = 503

[[record]]
compound = "O=C(O)COc1ccc2c(-c3ccccc3C(=O)OCC(=O)NCCOCCOCCNC(=O)/C=C/c3ccc(O)cc3)c3ccc(=O)cc-3oc2c1 [Compound 9, (O-carboxymethyl)-Flu-L12-Cou]"
unit_info = "nm"
result_number = 458

[[record]]
compound = "CC/N=c1\\cc2oc3cc(NCC)c(C)cc3c(-c3ccccc3C(=O)OCC(=O)NCCOCCOCCNC(=O)/C=C/c3ccc(O)c(O)c3)c-2cc1C [Compound 16, Rhodamine 6G-L12-Caf]"
unit_info = "nm"
result_number = 531

[[record]]
compound = "CC/N=c1\\cc2oc3cc(NCC)c(C)cc3c(-c3ccccc3C(=O)OCC(=O)NCCOCCOCCNC(=O)/C=C/c3ccc(O)cc3)c-2cc1C [Compound 2, Rhodamine 6G-L12-Cou]"
unit_info = "nm"
result_number = 531

[[record]]
compound = "CC/N=c1\\cc2oc3cc(NCC)c(C)cc3c(-c3ccccc3C(=O)OCC(=O)NCCNC(=O)/C=C/c3ccc(O)cc3)c-2cc1C [Compound 13, Rho6G-L6-Cou]"
unit_info = "nm"
result_number = 532

